Each record here notes measured Ratio pKi.
ASSAY_EXPLANATION: Selectivity ratio of pKi for CB1 receptor in rat brain to pKi for human cloned CB2 receptor
Assay type: tissue-based
Answer with a bare number; do not write a unit.

Example results:
Entry under test: "CCCCCn1cc(C(=O)Cc2ccccc2)c2ccccc21" . Its Ratio pKi was 1.04

Entry under test: "CCCCCn1cc(C(=O)Cc2cccc(OC)c2)c2ccccc21" . Its Ratio pKi was 1.1

Entry under test: "CCCCCn1c(C)c(C(=O)Cc2ccc(OC)cc2)c2ccccc21" . Its Ratio pKi was 0.933

Entry under test: "CCCCCn1c(C)c(C(=O)c2ccc(CCCC)c3ccccc23)c2ccccc21" . Its Ratio pKi was 0.901

Now look at this one.
Entry under test: "CCCCCn1cc(C(=O)c2cccc3ccc(CC)cc23)c2ccccc21" . Its Ratio pKi was 0.959

###

ASSAY_EXPLANATION: Selectivity ratio of pKi for human cloned CB2 receptor to pKi for CB1 receptor in rat brain
Assay type: tissue-based
Each record here notes measured Ratio pKi.
Answer with a bare number; do not write a unit.

Example results:
Entry under test: "CCCn1c(C)c(C(=O)c2ccc(OCC)c3ccccc23)c2ccccc21" . Its Ratio pKi was 1.09

Entry under test: "CCCCCn1cc(C(=O)Cc2ccccc2Cl)c2ccccc21" . Its Ratio pKi was 1.01

Entry under test: "CCCCCn1c(C)c(C(=O)Cc2ccc(OC)cc2)c2ccccc21" . Its Ratio pKi was 1.07

Now look at this one.
Entry under test: "CCCCCn1cc(C(=O)Cc2ccc(Cl)cc2)c2ccccc21" . Its Ratio pKi was 0.983

###

ASSAY_EXPLANATION: Selectivity ratio of pKi for CB1 receptor in rat brain to pKi for human cloned CB2 receptor
Format: tissue-based
Category key, based on recorded Ratio pKi: 1 (below 0.9), 2 (0.9 to below 1), 3 (1 or more)

Bin this entry: "CCCn1cc(C(=O)c2cccc3cc(OC)ccc23)c2ccccc21"
1

Bin this entry: "CCCCCn1c(C)c(C(=O)c2ccc(OC)c3ccccc23)c2ccccc21"
2

Bin this entry: "CCCCc1ccc(C(=O)c2c(C)n(CCC)c3ccccc23)c2ccccc12"
2

Bin this entry: "CCCn1cc(C(=O)c2c(OC)ccc3ccccc23)c2ccccc21"
1

Bin this entry: "CCCCCn1c(C)c(C(=O)c2cccc3ccc(C)cc23)c2ccccc21"
1

Bin this entry: "CCCCCn1cc(C(=O)c2cccc3ccccc23)c2ccccc21"
2

Bin this entry: "CCCCCn1cc(C(=O)Cc2ccccc2OC)c2ccccc21"
3

Bin this entry: "CCCCCn1cc(C(=O)c2ccc(CCCC)c3ccccc23)c2ccccc21"
2

Let us examine a further case.
Bin this entry: "CCCCCn1c(C)c(C(=O)Cc2ccc(Cl)cc2)c2ccccc21"
3

###

ASSAY_EXPLANATION: Selectivity ratio of pKi for human cloned CB2 receptor to pKi for CB1 receptor in rat brain
Assay type: tissue-based
Each record here notes measured Ratio pKi.
Answer with a bare number; do not write a unit.

Example results:
Entry under test: "CCCCCn1cc(C(=O)c2cccc3ccc(OC)cc23)c2ccccc21" . Its Ratio pKi was 0.997

Entry under test: "CCCCCn1c(C)c(C(=O)Cc2ccccc2C)c2ccccc21" . Its Ratio pKi was 1.01

Entry under test: "CCCn1cc(C(=O)c2c(OC)ccc3ccccc23)c2ccccc21" . Its Ratio pKi was 1.31

Entry under test: "CCCCCn1cc(C(=O)c2ccc(CCCC)c3ccccc23)c2ccccc21" . Its Ratio pKi was 1.04

Entry under test: "CCCCCn1c(C)c(C(=O)c2ccc(CCCC)c3ccccc23)c2ccccc21" . Its Ratio pKi was 1.11

***
Entry under test: "CCCn1c(C)c(C(=O)c2ccc(OC)c3ccccc23)c2ccccc21" . Its Ratio pKi was 1.11

Entry under test: "CCCn1c(C)c(C(=O)c2cccc3ccc(CC)cc23)c2ccccc21" . Its Ratio pKi was 1.13

Entry under test: "CCCCCn1c(C)c(C(=O)c2c(OC)ccc3ccccc23)c2ccccc21" . Its Ratio pKi was 1.26

Entry under test: "CCCCCn1c(C)c(C(=O)c2cccc3ccc(C)cc23)c2ccccc21" . Its Ratio pKi was 1.17

Entry under test: "CCCc1ccc(C(=O)c2c(C)n(CCC)c3ccccc23)c2ccccc12" . Its Ratio pKi was 1.09

###

ASSAY_EXPLANATION: Selectivity ratio of pKi for CB1 receptor in rat brain to pKi for human cloned CB2 receptor
Assay type: tissue-based
QUANTITY_MEASURED: Ratio pKi

Example results:
Entry under test: "CCCCCn1c(C)c(C(=O)Cc2cccc(Cl)c2)c2ccccc21" . Its Ratio pKi was 1.01

Entry under test: "CCCCCn1cc(C(=O)c2ccc(CCC)c3ccccc23)c2ccccc21" . Its Ratio pKi was 1.02

Entry under test: "CCCCCn1c(C)c(C(=O)c2ccc(C)c3ccccc23)c2ccccc21" . Its Ratio pKi was 0.909

Entry under test: "CCCn1c(C)c(C(=O)c2ccc(C)c3ccccc23)c2ccccc21" . Its Ratio pKi was 0.88

Entry under test: "CCCCCn1c(C)c(C(=O)c2ccc(OCC)c3ccccc23)c2ccccc21" . Its Ratio pKi was 0.991

Entry under test: "CCCCCn1c(C)c(C(=O)Cc2ccccc2)c2ccccc21" . Its Ratio pKi was 1.02

Entry under test: "CCCCc1ccc(C(=O)c2cn(CCC)c3ccccc23)c2ccccc12" . Its Ratio pKi was 0.888

Entry under test: "CCCCCn1c(C)c(C(=O)c2cccc3ccc(OC)cc23)c2ccccc21" . Its Ratio pKi was 0.92

***
Entry under test: "CCCCCn1c(C)c(C(=O)c2cccc3ccc(CC)cc23)c2ccccc21" . Its Ratio pKi was 0.915
